TEST_TARGET: T1, SARS-CoV-2 Gamma Variant RBD (SARS-CoV-2 Gamma variant)
T1 construct: domain: RBD; coated on ELISA plates
ASSAY_PROTOCOL: ELISA, RBD coated
Reported pEC50 values follow for various binders
On this scale, pEC50 is minus log10 of a concentration expressed in M (mol/L).

BINDER	DATA_VALUE
PP1101 MBP-5HVZ-PAPA-RN-16-H6 (VHH, Form: Dimer) VHH: QVQLVESGGGLVQPGGSLRLSCAASGADFSSNAMHWFRQAPGKAREFVASIDSDKSGYYADSVKGRFTISRDNAKNTVYLQMNSLKPEDTAVYYCNAYSGTDNYGYDYWGQGTQVTVSS	7.29

Now examine the next entry.
[in] Value lookup for pEC50; key = PP934 MBP-5HVZ-S3a-H2-H6 (VHH, Form: Dimer) VHH: QVQLVESGGGLVQPGGSLRLSCAASGAAFSKNALHWFRQAPGKGREWVASITSGSGTQYMDSVKGRFTISRDNAKNTVYLQMNSLKPEDTAVYYCAALAYSGGYDYWGQGTQVTVSS
[out] 8.32

These measurements were taken from patent US20240150440A1.
